Assay: Solubility test of couplers in di-n-butyl phthalate / ethyl acetate, visual evaluation of crystal precipitation
Type: physicochemical
Design: key: A: no precipitation; B: slight precipitation; C: precipitation in large amount
Details: 1 g coupler in 1 ml di-n-butyl phthalate and 4 ml ethyl acetate; dissolved at 70° C., left to stand at 20° C.; 12 hours
readout-name: Evaluation of solubility After 12 hours

Solved entries:
1) CCC(C)C(Oc1ccc(C(C)(C)CC)cc1C(C)(C)CC)C(=O)Nc1cc(O)c(NC(=O)c2c(F)c(F)c(F)c(F)c2F)cc1Cl (stereo not drawn); A
2) CCCCCCCCCCCCC(Oc1ccc(C(C)(C)CC)cc1C(C)(C)CC)C(=O)Nc1cc(O)c(NC(=O)c2c(F)c(F)c(F)c(F)c2F)cc1Cl (stereo not drawn) [Control coupler (D)]; C
3) CCC(Oc1ccc(C(C)(C)CC)cc1C(C)(C)CC)C(=O)Nc1cc(O)c(NC(=O)c2c(F)c(F)c(F)c(F)c2F)cc1Cl (stereo not drawn) [Control coupler (B)]; C
4) CCC(C)(C)c1ccc(OC(C(=O)Nc2cc(O)c(NC(=O)c3c(F)c(F)c(F)c(F)c3F)cc2Cl)C(C)C)c(C(C)(C)CC)c1 (stereo not drawn); A
5) CCCCCCCCC(Oc1ccc(C(C)(C)CC)cc1C(C)(C)CC)C(=O)Nc1cc(O)c(NC(=O)c2c(F)c(F)c(F)c(F)c2F)cc1Cl (stereo not drawn) [Control coupler (C)]; C

For the compound CC(C)C(Oc1ccc(C(C)(C)C)cc1C(C)(C)C)C(=O)Nc1cc(O)c(NC(=O)c2c(F)c(F)c(F)c(F)c2F)cc1Cl (stereo not drawn) , give its measured Evaluation of solubility After 12 hours value.
A

Just for reference, patent US4532202A is where these values come from.
